B1: TPR t1 (parent)
chain: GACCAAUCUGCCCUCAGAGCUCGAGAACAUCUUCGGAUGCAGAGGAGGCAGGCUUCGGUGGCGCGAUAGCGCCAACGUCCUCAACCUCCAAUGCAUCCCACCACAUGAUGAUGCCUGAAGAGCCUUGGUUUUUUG

Variants of: B1
Test: polymerase ribozyme fitness, log enrichment relative to wild type (log ratio); higher = more active; in vitro selection for triplet polymerase activity
Values of polymerase ribozyme fitness (log ratio) greater than or equal to -2 map to Fulfilled; values below map to Not fulfilled.

Would you please look over these solved cases?
# Variant spec, Assigned class
data = [
    ("C11G C49U G120C", "Fulfilled"),
    ("G10U G39C A46C U116G", "Not fulfilled"),
    ("G10U C49U", "Fulfilled"),
    ("A5G C15U C70U C101U C124U", "Fulfilled"),
    ("C3A C62U G93C", "Not fulfilled"),
]

Determine whether this variant has polymerase ribozyme fitness (log ratio) no lower than -2: C11G C13U C104A A111U
Not fulfilled

One more variant: A6G C72G C89U
Fulfilled

Moving on to the next variant: C8U U14A G61U C70U C104U C124A G135C
Fulfilled

# repeat for A29U C40U G44U C85U C89A C94G
Not fulfilled

And then C82U G113U , what is it?
Not fulfilled

Subsequent entry: G45U G47C C85A C88U
Not fulfilled

A6U U7C A41G G110A ?
Fulfilled

And for C8A C12U C114U U116G ?
Not fulfilled

Quick one: G10A C11A G42U G48A G63A A66U A91G C115U
Not fulfilled
